System: F380Y/beta4
TEST NAME: modulators of BK channel variants, profiling panel, selectivity assay, cell-based, U2OS BacMam, thallium flux, beta subunits (AID 1259406);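 also: initial slope of Thallos dye fluorescence rise after thallium is added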
EXPERIMENTAL CONTEXT: at 30 µM
Friendly reminder: log fold change Tl+ flux below -0.02 is Yes, at or above is No.

Example entries begin here.
CC(C)(C)c1cc2nc(C(F)(F)F)cc(NN=Cc3ccccc3)n2n1: Yes
COC(=O)c1cnn(C(=O)Nc2c(C)cccc2C)c1C(OC)OC: Yes

Find out if reported log fold change Tl+ flux for Cc1cc(NC(=S)N2CCCCCC2)ccc1Br is less than -0.02
Yes

Here's an entry: CNCC[C@H](Oc1cccc2ccccc12)c1cccs1 . Is its log fold change Tl+ flux below -0.02?
Yes

# check: log fold change Tl+ flux < -0.02 for O=C(CCN1CCOCC1)Nc1cc(Cl)cc(Cl)c1
No

Record CN(C)[C@@H]1C(=O)C(C(=O)NCN2CCCC2)=C(O)[C@@]2(O)C(=O)C3=C(O)c4c(O)cccc4[C@@](C)(O)C3CC12 (stereo partly specified) : is its log fold change Tl+ flux strictly below -0.02?
Yes

Just wondering, is log fold change Tl+ flux of Cc1ccc(S(=O)(=O)c2ncsc2SCc2ccc(Cl)cc2Cl)cc1 below -0.02?
No

Identify whether the molecule CC(=O)Oc1ccc(OC(C)=O)c2cc3c(OC(C)=O)ccc(OC(C)=O)c3cc12 records log fold change Tl+ flux below -0.02.
No

Find out if reported log fold change Tl+ flux for CN(C)CCOc1ccc(/C(=C(/CCCl)c2ccccc2)c2ccccc2)cc1 is less than -0.02
No

# strict comparison: is reported log fold change Tl+ flux < -0.02? input = CSc1nc(C=Nc2cccc(Cl)c2)c(O)n1Cc1cccc(Cl)c1
Yes

hey, is log fold change Tl+ flux for CC1(C)CCc2cc(C=NNC(=O)c3cccc(Cl)c3Cl)ccc2O1 lower than -0.02 or not?
No
